Tested on: MRC5
Experiment: Inhibitory concentration against Towne strain of HCMV in MRC5 cells
Format: functional, cell-based
Conditions: Homo sapiens
recorded.endpoint: IC50 (nM)
// units = nM; emit number, no label

Challenge: For "Nc1nc2c(ncn2COC(CO)CO)c(=O)[nH]1" , write its IC50.
Response given: 1500

---

Items are presented alongside their recorded IC50.
Molecular target: Protein kinase C (PKC)
Experiment: Inhibition of protein kinase C
Assay type: protein assay
// units = µM; emit number, no label

// worked examples, IC50 included
O=C1NC(=O)c2c1c1c3ccccc3[nH]c1c1c2c2ccccc2n1CC(F)(F)F: 25
CC(C)n1c2ccccc2c2c3c(c4c5ccccc5[nH]c4c21)C(=O)NC3=O: 50
CCCn1c2ccccc2c2c3c(c4c5ccccc5[nH]c4c21)C(=O)NC3=O: 50

Challenge: For "CCn1c2ccccc2c2c3c(c4c5ccccc5[nH]c4c21)C(=O)NC3=O" , write its IC50.
Response given: 10
